Target system: CpIMPDH (Cryptosporidium parvum, UniProt Q8T6T2)
Sequence (Q8T6T2 whole entry): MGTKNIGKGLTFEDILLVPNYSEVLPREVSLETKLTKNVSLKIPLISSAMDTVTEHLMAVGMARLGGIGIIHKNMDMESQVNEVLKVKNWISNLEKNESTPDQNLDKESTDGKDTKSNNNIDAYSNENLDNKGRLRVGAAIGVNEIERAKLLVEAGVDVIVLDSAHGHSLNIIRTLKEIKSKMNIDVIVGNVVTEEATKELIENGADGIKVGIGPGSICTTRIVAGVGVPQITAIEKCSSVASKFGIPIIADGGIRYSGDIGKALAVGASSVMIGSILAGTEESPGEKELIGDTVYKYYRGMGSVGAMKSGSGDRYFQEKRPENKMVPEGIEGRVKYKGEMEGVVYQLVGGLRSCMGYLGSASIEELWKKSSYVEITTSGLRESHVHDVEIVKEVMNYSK
Procedure text: CpIMPDH enzyme inhibition (without or with BSA)
Format: biochemical
Protocol conditions: without BSA; compound not previously described
Experimental readout: IC50 (µM)

[
  {
    "Compound": "CC(Oc1cccc2ncccc12)c1cn(-c2ccc(Cl)cc2)nn1 (stereo not shown)",
    "Experimental readout": "IC50",
    "Unit name": "µM",
    "Recorded result": 0.031
  }
]

* * *

Entries annotated with measured pEC50
Tested on: wild-type T. gondii
Procedure text: Fluorescent T. gondii growth assay, wild-type strain
Assay type: cell-based, Toxoplasma gondii
Protocol conditions: Toxoplasma gondii, wild-type T. gondii, no added xanthine; read-out: T. gondii model EC50 WT
Text: Wild-type T. gondii and T. gondii-ΔHXGPRT parasites were transfected with plasmid ptubYFPYFsagCAT [37] which drives constitutive cytoplasmic expression of two copies of the yellow fluorescent protein. […] Growth of fluorescent clones was monitored in 96 well plates as previously described. Briefly, fluorescence was read daily with a SpectraMax M22/M2e (Molecular Devices) plate reader (Ex 485, Em 530) for 6–7 days. […]
pEC50: −log10 of the molar value.
Experimental readout: pEC50

[
  {
    "Compound": "CC(Oc1cccc2c1ccc[n+]2[O-])c1cn(-c2ccc(Cl)cc2)nn1 (centres unmarked)",
    "Modifier sign": "=",
    "Recorded result": 4.64
  },
  {
    "Compound": "CC(Oc1ccnc2ccccc12)c1cn(-c2ccc(Cl)cc2)nn1 (centres unmarked)",
    "Modifier sign": "=",
    "Recorded result": 5.31
  },
  {
    "Compound": "CC(Oc1cc[n+]([O-])c2ccccc12)c1cn(-c2ccc(Cl)cc2)nn1 (centres unmarked)",
    "Modifier sign": "<",
    "Recorded result": 4.60
  },
  {
    "Compound": "C[C@@H](Oc1cccc2c1ccc[n+]2[O-])c1cn(-c2ccc(Cl)cc2)nn1",
    "Modifier sign": "<",
    "Recorded result": 4.60
  },
  {
    "Compound": "CC(Oc1ccc(Cl)c2ccccc12)c1cn(-c2ccc(Cl)cc2)nn1 (centres unmarked)",
    "Modifier sign": "=",
    "Recorded result": 5.30
  },
  {
    "Compound": "C[C@@H](Oc1cc[n+]([O-])c2ccccc12)c1cn(-c2ccc(Cl)cc2)nn1",
    "Modifier sign": "=",
    "Recorded result": 4.64
  },
  {
    "Compound": "CC(Oc1ccnc2ccccc12)c1cn(-c2ccc(C#N)c(Cl)c2)nn1 (centres unmarked)",
    "Modifier sign": "=",
    "Recorded result": 5.05
  },
  {
    "Compound": "CC(Oc1ccnc2ccccc12)c1cn(-c2ccc(Cl)c(Cl)c2)nn1 (centres unmarked)",
    "Modifier sign": "=",
    "Recorded result": 5.30
  },
  {
    "Compound": "C[C@H](Oc1ccnc2ccccc12)c1cn(-c2ccc(Cl)c(Cl)c2)nn1",
    "Modifier sign": "=",
    "Recorded result": 5.22
  },
  {
    "Compound": "CC(Oc1cccc2ncccc12)c1cn(-c2ccc(Cl)cc2)nn1 (centres unmarked)",
    "Modifier sign": "=",
    "Recorded result": 5.33
  },
  {
    "Compound": "COc1c(C)c2c(c(O)c1C/C=C(\\C)CCC(=O)O)C(=O)OC2 [MPA, mycophenolic acid, reference compound]",
    "Modifier sign": "=",
    "Recorded result": 5.59
  },
  {
    "Compound": "CC(Oc1cc[n+]([O-])c2ccccc12)c1cn(-c2ccc(Cl)c(Cl)c2)nn1 (centres unmarked)",
    "Modifier sign": "=",
    "Recorded result": 4.72
  },
  {
    "Compound": "C[C@H](Oc1ccnc2ccccc12)c1cn(-c2ccc(C#N)c(Cl)c2)nn1",
    "Modifier sign": "=",
    "Recorded result": 5.30
  },
  {
    "Compound": "C[C@@H](Oc1cncc2ccccc12)c1cn(-c2ccc(Cl)cc2)nn1",
    "Modifier sign": "=",
    "Recorded result": 5.55
  }
]

meta.source: paper PMC2919388
